test system: recombinant NL4-3 virus (nef section replaced with Renilla luciferase gene) in MT-2 cells; experiment: HIV cell culture assay (antiviral activity, luciferase readout); type: cell-based; details: Renilla, NL43, MT-2 cells infected for 4-5 days with recombinant NL4-3 Renilla luciferase virus, serial dilutions of compound
property: EC50 (nM)
One number for each entry, in nM.

Cc1nccnc1-c1ccc2c(=O)n(-c3ccc(Cl)c4c(NS(C)(=O)=O)nn(CC(F)F)c34)c([C@H](Cc3cc(F)cc(F)c3)NC(=O)Cn3nc(C(F)F)c4c3C(F)(F)[C@@H]3C[C@H]43)nc2c1 (atropisomer, axis not shown; (aR)); 0.054

Please look at the following compound next.
Lookup: Reported EC50 for O=C(Cn1nc(C(F)F)c2c1C(F)(F)[C@@H]1C[C@H]21)N[C@@H](Cc1cc(F)cc(F)c1)c1nc2cc(-c3cccnc3)ccc2c(=O)n1-c1ccc(S(=O)(=O)N2CCOCC2)cc1 : what is it?
Found: 4.3

###

system: recombinant NL4-3 virus (nef section replaced with Renilla luciferase gene) in MT-2 cells; assay: HIV cell culture assay (antiviral activity, luciferase readout); type: cell-based; conditions: Renilla, NL43, MT-2 cells infected for 4-5 days with recombinant NL4-3 Renilla luciferase virus, serial dilutions of compound
Threshold 0.5 nM. EC50 below it: true (1). EC50 at it or above: false (0).

Record excerpt, results attached:
Cn1nc(NS(C)(=O)=O)c2c(Cl)ccc(-n3c([C@H](Cc4cc(F)cc(F)c4)NC(=O)Cn4nc(C(F)F)c5c4C(F)(F)[C@@H]4C[C@H]54)nc4cc(-c5ccc(S(=O)(=O)N6CCOCC6)cc5)ccc4c3=O)c21 (atropisomer, axis not shown; (aR)) [Example 91]; true (1)
Cn1nc(NS(C)(=O)=O)c2c(Cl)ccc(-n3c([C@H](Cc4cc(F)cc(F)c4)NC(=O)Cn4nc(C(F)F)c5c4C(F)(F)[C@@H]4C[C@H]54)nc4cc(-c5ccc(C(=O)N6CCCCC6)cc5)ccc4c3=O)c21 (atropisomer, axis not shown; (aR)) [Example 34]; true (1)
Cn1nc(NS(C)(=O)=O)c2c(Cl)ccc(-n3c([C@H](Cc4cc(F)cc(F)c4)NC(=O)Cn4nc(C(F)F)c5c4C(F)(F)[C@@H]4C[C@H]54)nc4cc(-c5cc[nH]n5)ccc4c3=O)c21 (atropisomer, axis not shown; (aR)) [Example 78]; true (1)

Lookup: Criterion: EC50 strictly below 0.5 nM. Is it met by Cc1cc(F)ccc1-c1ccc2c(=O)n(-c3ccc(S(=O)(=O)N4CCOCC4)cc3)c([C@H](Cc3cc(F)cc(F)c3)NC(=O)Cn3nc(C(F)F)c4c3C(F)(F)[C@@H]3C[C@H]43)nc2c1 [Example 150] ?
Found: false (0)

Lookup: Criterion: EC50 strictly below 0.5 nM. Is it met by Cn1nc(NS(C)(=O)=O)c2c(Cl)ccc(-n3c([C@H](Cc4cc(F)cc(F)c4)NC(=O)Cn4nc(C(F)F)c5c4C(F)(F)[C@@H]4C[C@H]54)nc4cc(-c5cnc(F)c(F)c5)ccc4c3=O)c21 (atropisomer, axis not shown; (aR)) [Example 25] ?
Found: true (1)

Lookup: Criterion: EC50 strictly below 0.5 nM. Is it met by Cc1ncc(-c2ccc3c(=O)n(-c4ccc(Cl)c5c(NS(C)(=O)=O)nn(CC(F)F)c45)c([C@H](Cc4cc(F)cc(F)c4)NC(=O)Cn4nc(C(F)F)c5c4C(F)(F)[C@@H]4C[C@H]54)nc3c2)cn1 [Example 174] ?
Found: true (1)

Lookup: Criterion: EC50 strictly below 0.5 nM. Is it met by Cn1nc(NS(C)(=O)=O)c2c(Cl)ccc(-n3c([C@H](Cc4cc(F)cc(F)c4)NC(=O)Cn4nc(C(F)F)c5c4C(F)(F)[C@@H]4C[C@H]54)nc4cc(-c5cc(F)c(F)cc5F)ccc4c3=O)c21 [Example 171] ?
Found: true (1)

Lookup: Criterion: EC50 strictly below 0.5 nM. Is it met by CC(C)c1ccn(CC(=O)N[C@@H](Cc2cc(F)cc(F)c2)c2nc3cc(-c4ccccc4F)ccc3c(=O)n2-c2ccc(Cl)c3c(NS(=O)(=O)C4CC4)nn(CC(F)F)c23)n1 (atropisomer, axis not shown) [Example 135] ?
Found: false (0)

###

assay: Compound cytotoxicity, XTT-based colorimetric assay; type: cell-based; conditions: human, uninfected MT2 cells, day 4, XTT
Kindly state CC50 at 4 day for each of the entries shown.

Here are 3 molecules together with their reported answers.
O=C(Cc1ccn(C2CC2)n1)N[C@@H](Cc1cc(F)cc(F)c1)c1nc2cc(-c3ccccc3F)ccc2c(=O)n1-c1ccc(Cl)c2c(NS(=O)(=O)C3CC3)nn(CC(F)F)c12 [Example 139]; > 500 nM
Cn1nc(NS(C)(=O)=O)c2c(Cl)ccc(-n3c([C@H](Cc4cc(F)cc(F)c4)NC(=O)Cn4nc(C(F)F)c5c4C(F)(F)[C@@H]4C[C@H]54)nc4cc(-c5cc(F)cc(F)c5)ccc4c3=O)c21 (atropisomer, axis not shown; (aR)) [Example 103]; > 1000 nM
Cc1cc(C)nc(-c2ccc3c(=O)n(-c4ccc(Cl)c5c(NS(C)(=O)=O)nn(CC(F)(F)F)c45)c([C@H](Cc4cc(F)cc(F)c4)NC(=O)Cn4nc(C(F)F)c5c4C(F)(F)[C@@H]4C[C@H]54)nc3c2)n1 [Example 164]; > 500 nM

Please look at the following molecule next.
Lookup: Reported CC50 at 4 day for O=C(Cn1nc(C(F)F)c2c1C(F)(F)[C@@H]1C[C@H]21)N[C@@H](Cc1cc(F)cc(F)c1)c1nc2cc(-c3cccc(F)c3F)ccc2c(=O)n1-c1ccc(S(=O)(=O)N2CCOCC2)cc1 [Example 149] : what is it?
Found: > 1000 nM

###

assay: Compound cytotoxicity, XTT-based colorimetric assay; type: cell-based; settings: human, uninfected MT2 cells, day 4, XTT
Kindly state CC50 at 4 day for each of the entries shown.

O=C(Cn1ccc(C2CC2)n1)N[C@@H](Cc1cc(F)cc(F)c1)c1nc2cc(-c3ccccc3-c3ccccc3)ccc2c(=O)n1-c1ccc(S(=O)(=O)N2CCOCC2)cc1 [Example 146]; > 0.5 µM
Cn1nc(NS(C)(=O)=O)c2c(Cl)ccc(-n3c([C@H](Cc4cc(F)cc(F)c4)NC(=O)Cn4nc(C(F)F)c5c4C(F)(F)[C@@H]4C[C@H]54)nc4cc(-c5ccc(Cl)cc5)ccc4c3=O)c21 (atropisomer, axis not shown; (aR)) [Example 51]; > 1 µM
COc1cccc(OC)c1-c1ccc2c(=O)n(-c3ccc(Cl)c4c(NS(C)(=O)=O)nn(C)c34)c([C@H](Cc3cc(F)cc(F)c3)NC(=O)Cn3nc(C(F)F)c4c3C(F)(F)[C@@H]3C[C@H]43)nc2c1 (atropisomer, axis not shown; (aR)) [Example 86]; > 1 µM

Please look at the following compound next.
Lookup: Reported CC50 at 4 day for Cc1cc(F)ccc1-c1ccc2c(=O)n(-c3ccc(Cl)c4c(NS(C)(=O)=O)nn(C)c34)c([C@H](Cc3cc(F)cc(F)c3)NC(=O)Cn3nc(C(F)F)c4c3C(F)(F)[C@@H]3C[C@H]43)nc2c1 [Example 188] : what is it?
Found: > 1 µM

###

Assay: Compound cytotoxicity, XTT-based colorimetric assay
Assay type: cell-based
Details: human, uninfected MT2 cells, day 4, XTT
Protocol: Compound cytotoxicity and the corresponding CC50 values were determined using the same protocol as described in the antiviral assay except that uninfected cells were used. Cytotoxicity was assessed on day 4 in uninfected MT2 cells by using a XTT (2,3-bis[2-Methoxy-4-nitro-5-sulfophenyl]-2H-tetrazolium-5-carboxyanilide inner salt)-based colorimetric assay (Sigma-Aldrich, St Louis, Mo.).
property: CC50 at 4 day

Cn1nc(NS(C)(=O)=O)c2c(Cl)ccc(-n3c([C@H](Cc4cc(F)cc(F)c4)NC(=O)Cn4ccc(C5CC5)n4)nc4cc(-c5ccccc5F)ccc4c3=O)c21 (single isomer, unassigned) [Example 3]; > 1000 nM
COc1ccc(-c2ccc3c(=O)n(-c4ccc(S(=O)(=O)N5CCOCC5)cc4)c([C@H](Cc4cc(F)cc(F)c4)NC(=O)Cn4nc(C(F)F)c5c4C(F)(F)[C@@H]4C[C@H]54)nc3c2)cn1 [Example 112]; > 1000 nM
CC(C)S(=O)(=O)c1cccc(-c2ccc3c(=O)n(-c4ccc(Cl)c5c(NS(C)(=O)=O)nn(C)c45)c([C@H](Cc4cc(F)cc(F)c4)NC(=O)Cn4nc(C(F)F)c5c4C(F)(F)[C@@H]4C[C@H]54)nc3c2)c1 (atropisomer, axis not shown; (aR)) [Example 123]; > 500 nM
CCS(=O)(=O)c1ccccc1-c1ccc2c(=O)n(-c3ccc(Cl)c4c(NS(C)(=O)=O)nn(C)c34)c([C@H](Cc3cc(F)cc(F)c3)NC(=O)Cn3nc(C(F)F)c4c3C(F)(F)[C@@H]3C[C@H]43)nc2c1 (atropisomer, axis not shown; (aR)) [Example 119]; > 500 nM
CCS(=O)(=O)c1cccc(-c2ccc3c(=O)n(-c4ccc(Cl)c5c(NS(C)(=O)=O)nn(C)c45)c([C@H](Cc4cc(F)cc(F)c4)NC(=O)Cn4nc(C(F)F)c5c4C(F)(F)[C@@H]4C[C@H]54)nc3c2)c1 (atropisomer, axis not shown; (aR)) [Example 121]; > 500 nM
Cn1nc(NS(C)(=O)=O)c2c(Cl)ccc(-n3c([C@H](Cc4cc(F)cc(F)c4)NC(=O)Cn4nc(C(F)F)c5c4C(F)(F)[C@@H]4C[C@H]54)nc4cc(-c5cncnc5)ccc4c3=O)c21 (atropisomer, axis not shown; (aR)) [Example 84]; > 1000 nM

// batch mode: one CC50 at 4 day value per listed entry
1. Cn1nc(NS(C)(=O)=O)c2c(Cl)ccc(-n3c([C@H](Cc4cc(F)cc(F)c4)NC(=O)Cn4nc(C(F)F)c5c4C(F)(F)[C@@H]4C[C@H]54)nc4cc(-c5cccc(C(=O)O)c5)ccc4c3=O)c21 (atropisomer, axis not shown; (aR)) [Example 17]
2. Cn1nc(NS(C)(=O)=O)c2c(Cl)ccc(-n3c([C@H](Cc4cc(F)cc(F)c4)NC(=O)Cn4nc(C(F)F)c5c4C(F)(F)[C@@H]4C[C@H]54)nc4cc(-c5ccccc5S(C)(=O)=O)ccc4c3=O)c21 (atropisomer, axis not shown; (aR)) [Example 109]

Found:
1: > 1000 nM; 2: > 1000 nM
